These data points were gathered from the supplement of paper PMC10567573.

B1: PKD2L1 (parent)
chain: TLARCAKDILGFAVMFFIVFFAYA

Variants of: B1
Test: protein stability index of a GFP-peptide fusion (GPS, HEK-293T) (PSI 1-6); higher = more stable;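 further: lentivirally expressed fusions sorted by FACS into six bins by GFP to DsRed ratio, PSI derived from sequencing read proportions per bin multiplied by bin number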
Conditions: c terminus: a fixed tail appended
quantity: protein stability index
// response body must contain only the number

Example results:
Tell us which protein stability index value is on record for A22R
1.95

Tell us which protein stability index value is on record for A22W
2.69

Tell us which protein stability index value is on record for G11K
3.33

Tell us which protein stability index value is on record for F21L
1.94

Tell us which protein stability index value is on record for A24R
1.45

Tell us which protein stability index value is on record for F17G
2.44

Next:
Tell us which protein stability index value is on record for F20G
2.03

Tell us which protein stability index value is on record for A22Q
2.21

Tell us which protein stability index value is on record for L2K
1.84
